# measurement-protocol: Human HepG2 cell viability assay in 384 well format
# Assay type: toxicity, cell-based
# Set-up: dose 125 nL, time 70.5 hour; concentration not given beside the values
# conditions-used: HepG2 cells, read-out: Inhibition
Each entry below lists one item and its recorded cytotoxicity at 70.5 h value.
recorded-endpoint: cytotoxicity at 70.5 h (%)

INSERT INTO assay_data (compound, unit_abbreviation, numeric_value) VALUES
  ('CC(OCC1CC1)C(=O)N1CCCN(Cc2cscn2)CC1 (stereo not drawn)', '%', 1.88),
  ('COc1cc(CN2CCC3(CC(Nc4ccncn4)C3)C2)cc(OC)c1 (stereo not drawn)', '%', 0.186),
  ('COc1cc(-c2cc(=O)[nH]cn2)cc(OC)c1OC', '%', -5.45);

---

# measurement-protocol: Human HepG2 cell viability assay in 384 well format
# Type: toxicity, cell-based
# Parameters: dose 125 nL, time 70.5 hour; concentration not given beside the values
# conditions-used: HepG2 cells, read-out: Inhibition
recorded-endpoint: cytotoxicity at 70.5 h (%)

INSERT INTO measurements (compound, recorded_endpoint, numeric_value) VALUES
  ('COc1ccc(OCC(C)NS(C)(=O)=O)cc1 (stereo not given)', 'cytotoxicity at 70.5 h', -3.53),
  ('COCC(=O)NCC[C@H]1CC(C)(C)Oc2ccc(OC)cc21', 'cytotoxicity at 70.5 h', -2.28),
  ('Cc1ccccc1NC(=O)c1cncc(C2CCNCC2)n1', 'cytotoxicity at 70.5 h', -4.64),
  ('O=C(CN1CCCC1COc1ccccc1)NCc1ccccn1 (stereo not given)', 'cytotoxicity at 70.5 h', -10.9),
  ('CCn1cc(C(=O)Nc2cc(C(=O)OC)ccc2C(=O)OC)cn1', 'cytotoxicity at 70.5 h', -9),
  ('Cn1cc(CN2CC[C@@H]3[C@@H](CCC(=O)N3CCC3=CCCCC3)C2)cn1', 'cytotoxicity at 70.5 h', -4.77),
  ('COCCOc1ccc(NC(=O)C2CCCN(C(N)=O)C2)cn1 (stereo not given)', 'cytotoxicity at 70.5 h', 4.12),
  ('CN(C)CCN1CC(C(=O)NCc2cn3cccnc3n2)CC1=O (stereo not given)', 'cytotoxicity at 70.5 h', -5.17),
  ('c1ccc(CO[C@@H]2CN(Cc3ccoc3)[C@@H]3COC[C@@H]32)nc1', 'cytotoxicity at 70.5 h', 13),
  ('CN1C(=O)COc2ccc(NC(=O)CCc3nc4cccnc4[nH]3)cc21', 'cytotoxicity at 70.5 h', -9.73);

---

# measurement-protocol: Human HepG2 cell viability assay in 384 well format
# Type: toxicity, cell-based
# Set-up: dose 125 nL, time 70.5 hour; concentration not given beside the values
# conditions-used: HepG2 cells, read-out: Inhibition
cytotoxicity at 70.5 h strictly less than 10% = Satisfied. Otherwise Not satisfied.

INSERT INTO assay_data (mol, qualitative_label) VALUES
  ('CCCN1CCN(Cc2cc(Cl)cc(Cl)c2)[C@H]2CS(=O)(=O)C[C@H]21', 'Not satisfied'),
  ('O=C(c1ccc2[nH]nnc2c1)N1CCC(Nc2cccnn2)CC1', 'Not satisfied'),
  ('CCOc1cccc(C(=O)NCCC(=O)NCc2ccncc2)c1', 'Not satisfied'),
  ('CCOCCN1CCN(Cc2nnc(C3CC3)o2)CC1', 'Satisfied'),
  ('O=S(=O)(C1CC1)N1CCn2c(Cn3cncn3)cnc2C1', 'Satisfied');

---

# measurement-protocol: Human HepG2 cell viability assay in 384 well format
# Type: toxicity, cell-based
# Set-up: dose 125 nL, time 70.5 hour; concentration not given beside the values
# conditions-used: HepG2 cells, read-out: Inhibition
recorded-endpoint: cytotoxicity at 70.5 h (%)

INSERT INTO assay_data (compound, numeric_value) VALUES
  ('CC(=O)N(Cc1ccsc1)c1ccccc1', -7.44),
  ('CN(Cc1cc(F)ccc1F)CC(C)(CO)CO', -5.92),
  ('O=C(O)C(c1ccc2c(c1)OCO2)N1CCC(O)(c2cccnc2)CC1 (configuration not stated)', 0.616),
  ('CC(C)NS(=O)(=O)c1cc(C(=O)O)cc(-c2ccc3c(c2)OCO3)c1', -9.21),
  ('Cn1cccc(NC(=O)COc2ccc(Br)cc2)c1=O', 21.8),
  ('Cc1nc(NCc2ccccn2)c2c(n1)c(C)nn2C', 5.97),
  ('O=C1CC[C@@H]2[C@@H](CCN2C(=O)C2CCOCC2)N1CC1CC1', -8.18);

---

Each entry below lists one item and its recorded cytotoxicity at 70.5 h value.
# measurement-protocol: Human HepG2 cell viability assay in 384 well format
# Format: toxicity, cell-based
# Set-up: dose 125 nL, time 70.5 hour; concentration not given beside the values
# conditions-used: HepG2 cells, read-out: Inhibition
recorded-endpoint: cytotoxicity at 70.5 h (%)

INSERT INTO results (compound, recorded_endpoint, unit_abbreviation, numeric_value) VALUES
  ('Cc1ccc(NC(=O)C2CSCN2C(=O)c2cccnc2)c(C)c1 (stereo not given)', 'cytotoxicity at 70.5 h', '%', 6.06),
  ('c1cnc(N2CCC(OCC3CCCCO3)CC2)nc1 (stereo not given)', 'cytotoxicity at 70.5 h', '%', -2.08),
  ('O=C(OCCNc1ncccn1)c1ccc(Cl)s1', 'cytotoxicity at 70.5 h', '%', -3.07),
  ('CN1CCN(Cc2cccnc2)C(=O)C12CCN(CC1CCOC1)CC2 (stereo not given)', 'cytotoxicity at 70.5 h', '%', -6.06),
  ('COc1nccnc1N1CCCC2(C1)C(=O)N(C)c1ccccc12 (stereo not given)', 'cytotoxicity at 70.5 h', '%', -12.3);

---

Each entry below lists one item and its recorded cytotoxicity at 70.5 h value.
# measurement-protocol: Human HepG2 cell viability assay in 384 well format
# Format: toxicity, cell-based
# Set-up: dose 125 nL, time 70.5 hour; concentration not given beside the values
# conditions-used: HepG2 cells, read-out: Inhibition
recorded-endpoint: cytotoxicity at 70.5 h (%)

INSERT INTO assay_data (compound, recorded_endpoint, numeric_value) VALUES
  ('COCc1ccc(CNc2cncc(-n3cccn3)n2)cc1', 'cytotoxicity at 70.5 h', -9.14),
  ('CCSc1ccc(NC(=O)N2CCCC2c2ccncc2)cn1 (stereo not given)', 'cytotoxicity at 70.5 h', -8.21),
  ('Cc1cc(C(=O)NC2CCc3c(ccc(=O)n3CC3CC3)C2)no1 (stereo not given)', 'cytotoxicity at 70.5 h', -6.82),
  ('c1cc(CN2CCN3C[C@H](Oc4cncnc4)C[C@H]3C2)ccn1', 'cytotoxicity at 70.5 h', -5.1),
  ('Cn1cnnc1C1CCN(C(=O)CCOc2ccc(Cl)cc2)CC1', 'cytotoxicity at 70.5 h', 19.2),
  ('Cc1ccc(N2CCCN(C(=O)C3CCCO3)CC2)nn1 (stereo not given)', 'cytotoxicity at 70.5 h', 4.49),
  ('Cc1cc(-n2nnc(C(=O)O)c2-c2ccncc2)ccc1F', 'cytotoxicity at 70.5 h', -20),
  ('CNC(=O)CN1CC[C@H]2CN(C(=O)c3ccccc3F)C[C@H]2C1', 'cytotoxicity at 70.5 h', -2.12),
  ('O=C(NC1CCN(Cc2ccc(F)cc2)CC1)c1ccc2c(c1)CCC2', 'cytotoxicity at 70.5 h', -6.88),
  ('CN(C)c1cc(C2CCCN(C(=O)c3noc4c3CCCC4)C2)ccn1 (stereo not given)', 'cytotoxicity at 70.5 h', -1.31),
  ('O=C1CC(C(=O)NCCN2CCOC2=O)c2cc(F)ccc2N1 (stereo not given)', 'cytotoxicity at 70.5 h', 2.37),
  ('CC(C)N(C)Cc1cnc2n1CCN(Cc1cccc(F)c1)C2', 'cytotoxicity at 70.5 h', -4.8),
  ('COCCN1CCN(C(=O)C2CC=CC2)Cc2cccnc21', 'cytotoxicity at 70.5 h', -12),
  ('COCC(=O)NC[C@@]1(COc2cnccn2)C[C@@H](O)[C@@H](O)C1', 'cytotoxicity at 70.5 h', 13.8),
  ('Cc1nn(C)cc1CC(C#N)C(=O)Nc1cccc(O)c1 (stereo not given)', 'cytotoxicity at 70.5 h', -12.6);

---

# measurement-protocol: Human HepG2 cell viability assay in 384 well format
# Assay type: toxicity, cell-based
# Set-up: dose 125 nL, time 70.5 hour; concentration not given beside the values
# conditions-used: HepG2 cells, read-out: Inhibition
Each entry below lists one item and its recorded cytotoxicity at 70.5 h value.
recorded-endpoint: cytotoxicity at 70.5 h (%)

INSERT INTO assay_data (molecule, recorded_endpoint, numeric_value) VALUES
  ('CC(C)OCc1cccc(NC(=O)N2CCCC(CCC(N)=O)C2)c1 (centres undefined)', 'cytotoxicity at 70.5 h', 6.13),
  ('CS(=O)(=O)NCc1cc2n(n1)CCCN(Cc1ccc(Cl)s1)C2', 'cytotoxicity at 70.5 h', -9.1),
  ('CSC(C)(C)CNC(=O)NC1CCN(CC(F)F)CC1', 'cytotoxicity at 70.5 h', -1.88),
  ('CN(C)C(=O)C1CCC2(CCN(Cc3cnn(C)c3)CC2)C1 (centres undefined)', 'cytotoxicity at 70.5 h', -7.73),
  ('CC(C)c1nc2n(n1)CC(NCc1ncc(-c3ccccc3)o1)CC2 (centres undefined)', 'cytotoxicity at 70.5 h', -6.07),
  ('Cc1cnn(CC2CCCCN2C(=O)c2ccc(C#N)c(C)n2)c1 (centres undefined)', 'cytotoxicity at 70.5 h', -0.947),
  ('CCS(=O)(=O)N1CCC2(CN(c3ccsc3)C(=O)CN2C)C1 (centres undefined)', 'cytotoxicity at 70.5 h', -124),
  ('CCN(CC)C(C(=O)NCc1ccc(N2CCCC2)nc1)C(C)C (centres undefined)', 'cytotoxicity at 70.5 h', 2.85),
  ('c1cc(CN2CC[C@H]3O[C@@H](COCC4CCOCC4)CC[C@H]32)ccn1', 'cytotoxicity at 70.5 h', 23.2),
  ('CN(C)CC(=O)N1CCc2sc(C(=O)N3CCOCC3)cc21', 'cytotoxicity at 70.5 h', -0.909),
  ('Cc1cc(C(F)(F)F)n2nc(C3CCCN(S(C)(=O)=O)C3)cc2n1 (centres undefined)', 'cytotoxicity at 70.5 h', -2.03),
  ('CC1CCN(c2ncc(C#N)c(N)n2)CC1', 'cytotoxicity at 70.5 h', -3.5),
  ('O=C(CCc1ccsc1)N1CCCC(N2CCNC2=O)C1 (centres undefined)', 'cytotoxicity at 70.5 h', -10.5),
  ('COCCn1cc(C(=O)N2CCCC(n3cncn3)C2)ccc1=O (centres undefined)', 'cytotoxicity at 70.5 h', 8.17),
  ('CCC1(CNCc2ncc[nH]2)CCCC1', 'cytotoxicity at 70.5 h', -13.3),
  ('COc1ccccc1[C@@H]1CN(Cc2c(C)noc2C)C[C@H]1C(=O)O', 'cytotoxicity at 70.5 h', -8.62),
  ('CN(C)c1ncc2c(n1)C1(CCN(Cc3ccccc3F)C1)COC2 (centres undefined)', 'cytotoxicity at 70.5 h', -7.03),
  ('CC(C)NC(=O)c1nc(Cn2c(C(F)(F)F)nc3ccccc32)no1', 'cytotoxicity at 70.5 h', 14.5),
  ('C=C/C=c1\c(=C/C)oc2c(NCc3ccccc3)nc(C)nc12', 'cytotoxicity at 70.5 h', 13.2),
  ('Cc1ccsc1CNCc1c(C(C)C)nn(C)c1N1CCOCC1', 'cytotoxicity at 70.5 h', -20.5),
  ('Fc1ccccc1CC1CCN(Cc2nccs2)CC1', 'cytotoxicity at 70.5 h', -3.29),
  ('CN1CC2(CCN(Cc3cccnc3)CC2)c2cccc(F)c21', 'cytotoxicity at 70.5 h', -2.73),
  ('CN(Cc1cn2c(n1)CN(C(=O)c1cccnc1)CC2)Cc1ccco1', 'cytotoxicity at 70.5 h', -2.78),
  ('CC(=O)N1CCC2(CCCN(Cc3ccc(Cl)c(C(F)(F)F)c3)C2)C1 (centres undefined)', 'cytotoxicity at 70.5 h', -5.25),
  ('CS(=O)(=O)N1C[C@@H]2COC[C@@H](CC(=O)N3CCCO3)[C@@H]2C1', 'cytotoxicity at 70.5 h', -8.58),
  ('O=C1CC(c2cccs2)Cc2[nH]c(=O)ccc21 (centres undefined)', 'cytotoxicity at 70.5 h', -7.47),
  ('Cn1c(Cn2ccnc2)nnc1C1CCCN(Cc2ccncc2)C1 (centres undefined)', 'cytotoxicity at 70.5 h', 14),
  ('CC(C)n1cc(CN2CCCN(C(=O)c3cc(Cl)c[nH]3)CC2)cn1', 'cytotoxicity at 70.5 h', 1.03),
  ('Cc1nn(CCC#N)c(C)c1CCC(=O)N(C)Cc1ccc(F)cc1F', 'cytotoxicity at 70.5 h', -4.98),
  ('Cc1nnc(N2CCCC3(CN(Cc4nccs4)CCO3)C2)o1 (centres undefined)', 'cytotoxicity at 70.5 h', 34.9),
  ('CC(C)(C)c1ncc(C(=O)NCCNC(=O)c2ccco2)s1', 'cytotoxicity at 70.5 h', -6.05),
  ('c1cnc(N2CCC3(CCCN(CC4CC4)C3)CC2)nc1', 'cytotoxicity at 70.5 h', -6.6),
  ('Cc1nsc(NC2CC(=O)N(C(C)(C)C)C2)n1 (centres undefined)', 'cytotoxicity at 70.5 h', 11.5),
  ('CCn1cc(NC(=O)C2CCN(CC(=O)NCC(C)C)CC2)cn1', 'cytotoxicity at 70.5 h', -5.15),
  ('CN(C)c1ncccc1N(C)C(=O)Cn1cc(-c2ccccc2)nn1', 'cytotoxicity at 70.5 h', -3.41),
  ('O=C(NC1CC(=O)N(C2CC2)C1)c1ccc(Cl)s1 (centres undefined)', 'cytotoxicity at 70.5 h', -8.35),
  ('CC(C)CS(=O)(=O)CC(=O)NC(C)c1nnc2n1CCC2 (centres undefined)', 'cytotoxicity at 70.5 h', -2.61),
  ('CN(C)c1cc(CNC(=O)c2ccccc2S(C)(=O)=O)ccn1', 'cytotoxicity at 70.5 h', 0.46),
  ('Cc1nn(C)c(Cl)c1S(=O)(=O)N(C)C', 'cytotoxicity at 70.5 h', 1.44),
  ('COCCN1CC[C@]2(CN(C(=O)c3cccs3)C[C@H]2C)C1=O', 'cytotoxicity at 70.5 h', -10.6),
  ('CCCS(=O)(=O)NCC(C)c1ccc(F)c(F)c1 (centres undefined)', 'cytotoxicity at 70.5 h', 6.33),
  ('O=C(c1cccs1)N1CCCn2cnc(COCC3CC3)c2C1', 'cytotoxicity at 70.5 h', -12.8),
  ('Cc1cccc(OCCCNC(=O)Cn2ccc(C)cc2=O)c1', 'cytotoxicity at 70.5 h', -6.82),
  ('Cc1cnn(CC2CCN(CC(O)CN3CCC(C)CC3)CC2)c1 (centres undefined)', 'cytotoxicity at 70.5 h', -4.29);
